The measured values listed here are drawn from ChEMBL document CHEMBL3425423.

Below, each entry is listed with its recorded MIC.
System: Staphylococcus aureus
Method summary: Antibacterial activity against Staphylococcus aureus Smith
Type: functional
Condition label: Staphylococcus aureus, Smith; read-out: MIC
Readout: MIC (µg/mL)

[
  {
    "Given smiles": "O=c1ccc2ncc(F)c3c2n1C[C@@]3(O)CC12CCC(NCc3cc4c(cn3)OCCO4)(CC1)CO2",
    "Measured number": 0.5
  },
  {
    "Given smiles": "O=c1ccc2ncc(F)c3c2n1C[C@@]3(O)CC12CCC(NCCCc3cc(F)ccc3F)(CC1)CO2",
    "Measured number": 0.5
  },
  {
    "Given smiles": "O=C1COc2cnc(CNC34CCC(C[C@]5(O)Cn6c(=O)ccc7ncc(F)c5c76)(CC3)OC4)nc2N1",
    "Measured number": 0.5
  }
]
